Sourced from ChEMBL document CHEMBL1133103

molecular target: Histamine H3 receptor (Cavia porcellus, UniProt Q9JI35); assay: In vitro binding affinity towards histamine H3 receptor was determined in guinea-pig cerebral cortex using [3H](R)-alpha-methylhistamine
Sequence (Q9JI35 whole entry): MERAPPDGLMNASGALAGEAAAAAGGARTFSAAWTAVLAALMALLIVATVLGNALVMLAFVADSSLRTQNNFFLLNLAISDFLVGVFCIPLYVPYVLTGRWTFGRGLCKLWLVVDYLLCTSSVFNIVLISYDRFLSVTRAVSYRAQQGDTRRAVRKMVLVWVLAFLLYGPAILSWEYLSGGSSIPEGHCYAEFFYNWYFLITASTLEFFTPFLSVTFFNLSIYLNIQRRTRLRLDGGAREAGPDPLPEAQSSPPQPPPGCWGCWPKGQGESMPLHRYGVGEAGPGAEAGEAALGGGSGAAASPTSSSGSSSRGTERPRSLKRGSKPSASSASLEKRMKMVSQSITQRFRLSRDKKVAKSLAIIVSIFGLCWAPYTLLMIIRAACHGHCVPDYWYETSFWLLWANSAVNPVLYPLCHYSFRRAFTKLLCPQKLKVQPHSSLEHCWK
quantity_measured: pKi
Hey, just a heads up that pKi is the negative log base 10 of the concentration in molar.

INPUT: Report pKi for O=[N+]([O-])c1ccc(OCCCCCN2CCCC2)cc1 please.
OUTPUT: 7.41

---

Listing of entries alongside the reported Ki.
biological target: UniProt:Q9JI35; assay: In vitro binding affinity for histamine H3 receptor was determined in guinea-pig cerebral cortex using [3H](R)-alpha-methylhistamine; assay type: tissue-based
# value in nM; strip the unit string

Check out these entries, answers already filled in.
INPUT: Quick one: Ki for N=C(NCCCCN1CCCC1)NCCc1ccc(Cl)cc1 ?
OUTPUT: 6.76

INPUT: Another molecule to look at: COc1ccc(C/N=C(\N)NCCCN2CCCC2)cc1
OUTPUT: 83.2

INPUT: Also need N=C(NCCCN1CCCC1)NCc1ccc(C(F)(F)F)cc1 , thanks.
OUTPUT: 100

INPUT: Now try S=C(NCCCN1CCCC1)NCc1ccc(Cl)cc1 .
OUTPUT: 407

INPUT: Same question for N=C(NCCCN1CCCC1)NCc1ccc(I)cc1 please.
OUTPUT: 53.7

New cases:
INPUT: # lookup: Ki of N=C(NCCCN1CCCC1)NCc1cccc(Br)c1
OUTPUT: 25.7
